- Measurement description: in vitro
- Assay conditions: human, CC50, uninfected A549 cells, CellTiter-Glo
Quick reference for CC50 among some compounds
Reported property: CC50

• CC[C@@H]1/C=C/COc2c(F)cccc2[C@H](c2ccccn2)N2CN1C(=O)c1c(O)c(=O)ccn12 (single isomer, unassigned) [Compound 154BA] = > 100 nM
• O=C1c2c(O)c(=O)ccn2N2CN1CCCCOc1ccc(F)cc1[C@@H]2c1ccccc1 (single isomer, unassigned) [Compound 30B] = > 2000 nM
• O=C1c2c(O)c(=O)ccn2N2CN1CCC/C=C\Cc1ccccc1C2c1ccccn1 (stereo not shown) = > 20000 nM
• O=C1c2c(O)c(=O)ccn2N2CN1C/C=C\COc1cc(F)c(F)cc1[C@@H]2c1ccccc1 (single isomer, unassigned) [Compound 41B] = > 2000 nM

----------
- Measurement description: in vitro
- Assay conditions: human, CC50, uninfected A549 cells, CellTiter-Glo
Reported property: CC50

* O=C1c2c(O)c(=O)ccn2N2CN1CCCCCCOc1ccccc1C2c1ccccc1 (stereo not shown) [Compound 55] | > 2000 nM
* O=C1c2c(O)c(=O)ccn2N2CN1C/C=C\COc1cc(C(F)F)ccc1[C@@H]2c1ccccc1 (single isomer, unassigned) [Compound 94A] | > 1000 nM
* O=C1c2c(O)c(=O)ccn2N2CN1CC/C=C\COc1ccc(F)c3c1[C@@H]2c1ccccc1SC3 (single isomer, unassigned) [Compound 93A] | > 1000 nM
* O=C1c2c(O)c(=O)ccn2N2CN1C1(/C=C/COc3c(ccc(F)c3F)[C@@H]2c2ccccc2)CC1 [Compound 102B] | 33900 nM
* CSc1ccccc1[C@H]1c2cccc(F)c2OC/C=C\CN2CN1n1ccc(=O)c(O)c1C2=O (single isomer, unassigned) [Compound 119A] | > 200 nM
* O=C1c2c(O)c(=O)ccn2N2CN1CCCCOc1c(ccc(F)c1F)[C@H]2c1ccccc1 (single isomer, unassigned) [Compound 115A] | > 200 nM
* CC[C@H]1/C=C/COc2c(ccc(Cl)c2Cl)[C@@H](c2ccccc2)N2CN1C(=O)c1c(O)c(=O)ccn12 (single isomer, unassigned) [Compound 121AB] | > 200 nM
* C/C1=C/CN2CN([C@H](c3ccccc3)c3ccccc3OC1)n1ccc(=O)c(O)c1C2=O (single isomer, unassigned) [Compound 44A] | > 200 nM
* O=C1c2c(O)c(=O)ccn2N2CN1CC[C@H]1C[C@H]1COc1cccc3c1[C@@H]2c1ccccc1SC3 (single isomer, unassigned) [Compound 144AB] | > 200 nM
* O=C1c2c(O)c(=O)ccn2N2CN1CCCCCOc1cccc3c1[C@H]2c1ccccc1SC3 (single isomer, unassigned) [Compound 48A] | > 2000 nM
* O=C1c2c(O)c(=O)ccn2N2CN1C/C=C/COc1cccc3c1[C@@H]2c1ccccc1SC3 [Compound 46C] | > 2000 nM
* O=C1c2c(O)c(=O)ccn2N2CN1CCCCCc1ncccc1[C@H]2c1ccccc1 (single isomer, unassigned) [Compound 23A] | > 10000 nM
* O=C1c2c(O)c(=O)ccn2N2CN1C/C=C/CCc1ccccc1[C@H]2c1cccc(F)n1 (single isomer, unassigned) [Compound 78B] | 61600 nM
* C[C@@H]1/C=C\COc2cc(F)c(F)c3c2[C@H](c2ccccc2SC3)N2CN1C(=O)c1c(O)c(=O)ccn12 (single isomer, unassigned) [Compound 162C] | > 100 nM
* O=C1c2c(O)c(=O)ccn2N2CN1C1(/C=C/COc3c(F)cccc3[C@H]2c2ccccc2)CC1 (single isomer, unassigned) [Compound 95B] | > 1000 nM
* CC[C@H]1/C=C\COc2cccc3c2[C@H](c2ccccc2SC3)N2CN1C(=O)c1c(O)c(=O)ccn12 [Compound 92AA] | > 1000 nM
* O=C1c2c(O)c(=O)ccn2N2CN1CCC=CCOc1c(F)cccc1[C@@H]2c1ccccc1 (single isomer, unassigned) [Compound 84B] | > 200 nM
* CN1Cc2ccccc2C(c2ccccc2)N2CN(CCC1=O)C(=O)c1c(O)c(=O)ccn12 (stereo not shown) [Compound 50] | > 2000 nM
* O=C1c2c(O)c(=O)ccn2N2CN1C/C=C/CCc1cc(F)ccc1[C@@H]2c1ccccn1 (single isomer, unassigned) [Compound 57A] | > 2000 nM
* COC[C@@H]1/C=C/COc2c(ccc(F)c2F)[C@@H](c2ccccc2)N2CN1C(=O)c1c(O)c(=O)ccn12 (single isomer, unassigned) [Compound 153BA] | > 100 nM
* O=C1c2c(O)c(=O)ccn2N2CN1C1(/C=C/COc3c(Cl)cccc3[C@H]2c2ccccc2)CC1 (single isomer, unassigned) [Compound 96A] | > 200 nM
* O=C1c2c(O)c(=O)ccn2N2CN1CC[C@H]1C[C@@H]1COc1cccc3c1[C@H]2c1ccccc1SC3 (single isomer, unassigned) [Compound 131BB] | > 200 nM
* C[C@H]1/C=C/COc2c(F)cccc2[C@@H](c2ccccc2)N2CN1C(=O)c1c(O)c(=O)ccn12 (single isomer, unassigned) [Compound 141AB] | > 50 nM
* O=C1c2c(O)c(=O)ccn2N2CN1C1(/C=C/COc3cc(F)c(F)c4c3[C@H]2c2ccccc2SC4)CC1 (single isomer, unassigned) [Compound 108B] | > 50 nM
* O=C1c2c(O)c(=O)ccn2N2CN1CCCCOc1c(ccc(F)c1F)[C@@H]2c1ccccc1 (single isomer, unassigned) [Compound 115B] | > 200 nM

----------
- Measurement description: in vitro
- Assay conditions: human, CC50, uninfected A549 cells, CellTiter-Glo
Quick reference for CC50 among some compounds
Reported property: CC50

* CC[C@H]1C/C=C/COc2c(F)cccc2[C@@H](c2ccccc2)N2CN1C(=O)c1c(O)c(=O)ccn12 (single isomer, unassigned) [Compound 105AA] | > 200 nM
* CC[C@H]1/C=C/COc2c(ccc(Cl)c2Cl)[C@H](c2ccccc2)N2CN1C(=O)c1c(O)c(=O)ccn12 (single isomer, unassigned) [Compound 121BB] | > 200 nM
* CC[C@H]1CCCOc2c(ccc(F)c2F)[C@@H](c2ccccc2)N2CN1C(=O)c1c(O)c(=O)ccn12 (single isomer, unassigned) [Compound 164A] | > 100 nM
* C[C@@H]1/C=C/COc2cccc3c2[C@H](c2ccccc2SC3)N2CN1C(=O)c1c(O)c(=O)ccn12 (single isomer, unassigned) [Compound 138C] | > 200 nM
* O=C1c2c(O)c(=O)ccn2N2CN1C/C=C\COc1ccccc1[C@@H]2c1ccccc1 [Compound 5B] | > 2000 nM
* O=C1c2c(O)c(=O)ccn2N2CN1[C@H](C(F)F)/C=C/COc1cccc3c1[C@@H]2c1ccccc1SC3 (single isomer, unassigned) [Compound 163BB] | > 100 nM

----------
Quick reference for CC50 among some compounds
- Measurement description: in vitro
- Assay conditions: human, CC50, uninfected A549 cells, CellTiter-Glo
Reported property: CC50

• C[C@H]1/C=C/COc2ccccc2[C@H](c2ccccc2)N2CN1C(=O)c1c(O)c(=O)ccn12 (single isomer, unassigned) [Compound 29BB] = > 2000 nM
• O=C1c2c(O)c(=O)ccn2N2CN1CC[C@@H]1C[C@@H]1COc1cccc3c1[C@H]2c1ccccc1SC3 (single isomer, unassigned) [Compound 144BA] = > 200 nM
• O=C1c2c(O)c(=O)ccn2N2CN1CC/C=C\COc1c(ccc(F)c1F)[C@@H]2c1ccccc1 (single isomer, unassigned) [Compound 116A] = > 200 nM
• O=C1c2c(O)c(=O)ccn2N2CN1CCOC/C=C\c1cccc3c1[C@H]2c1ccccc1CC3 (single isomer, unassigned) [Compound 83A] = > 1000 nM
• O=C1c2c(O)c(=O)ccn2N2CN1C[C@@H]1C[C@H]1COc1c(F)cccc1[C@H]2c1ccccc1 (single isomer, unassigned) [Compound 125AA] = > 200 nM
• O=C1c2c(O)c(=O)ccn2N2CN1C[C@H]1C[C@H]1COc1cccc3c1[C@H]2c1ccccc1SC3 (single isomer, unassigned) [Compound 118AA] = > 200 nM
• O=C1c2c(O)c(=O)ccn2N2CN1CC/C=C/COc1c(ccc(F)c1F)[C@@H]2c1ccccc1 (single isomer, unassigned) [Compound 112A] = > 200 nM
• O=C1c2c(O)c(=O)ccn2N2CN1CCCCCOc1cccc3c1[C@@H]2c1ccccc1SC3 (single isomer, unassigned) [Compound 48B] = > 2000 nM

----------
- Measurement description: in vitro
- Assay conditions: human, CC50, uninfected A549 cells, CellTiter-Glo
Reported property: CC50

• O=C1c2c(O)c(=O)ccn2N2CN1C/C=C/CCc1cc(F)ccc1[C@H]2c1ccccn1 (single isomer, unassigned) [Compound 57B] = > 2000 nM
• Cc1cccc2c1OC/C=C\CN1CN([C@@H]2c2ccccc2)n2ccc(=O)c(O)c2C1=O (single isomer, unassigned) [Compound 110B] = > 200 nM
• O=C1c2c(O)c(=O)ccn2N2CN1C/C=C\COc1ccccc1[C@@H]2c1ccc(F)c(F)c1 (single isomer, unassigned) [Compound 45B] = > 200 nM
• O=C1c2c(O)c(=O)ccn2N2CN1C[C@H]1C[C@@H](COc3cccc4c3[C@H]2c2ccccc2SC4)C1 (single isomer, unassigned) [Compound 161B] = > 100 nM
• O=C1c2c(O)c(=O)ccn2N2CN1C/C=C\CCc1cnccc1[C@H]2c1ccccc1 (single isomer, unassigned) [Compound 56A] = > 2000 nM
• O=C1c2c(O)c(=O)ccn2N2CN1C/C=C\COc1c(cccc1C(F)(F)F)[C@H]2c1ccccc1 (single isomer, unassigned) [Compound 130A] = > 200 nM
